Test system: phosphoenol pyruvate carboxylase
Assay Overview: Stability of phosphoenol pyruvate carboxylase on storage with protease inhibitors (activity assay on TECHNICON RA-1000)
Assay type: biochemical
Experimental Conditions: 20 Hrs, absence of (NH₄)₂SO₄; PMSF 1mM, α-Antitrypsin Inhibitor 5 mg/ml, p-Nitrophenyl-p-Guanidinobenzoate 0.1mg/ml, Ovomucoid 10 mg/ml, D-Tryptophan methyl ester 5mM, 4-Phenyl butylamine 10mM, D-Arginine 10mM, D-phenylalanine 5mM; control 35
Reported Metric: Percent Activity Remaining at Time (Hrs.) (%)
Please respond with the number in % and leave the unit unwritten.

## Input Supply measured Percent Activity Remaining at Time (Hrs.) of `N=C(N)NCCC[C@@H](N)C(=O)O` in your reply.
## Output 30

## Input Supply measured Percent Activity Remaining at Time (Hrs.) of `NCCCCc1ccccc1` in your reply.
## Output 57

## Input Supply measured Percent Activity Remaining at Time (Hrs.) of N=C(N)Nc1ccc(C(=O)Oc2ccc([N+](=O)[O-])cc2)cc1 [p-Nitrophenyl-p-Guanidinobenzoate] in your reply.
## Output 42

## Input Supply measured Percent Activity Remaining at Time (Hrs.) of O=S(=O)(F)Cc1ccccc1 [PMSF, phenyl methyl sulfonyl fluoride] in your reply.
## Output 71

## Input Supply measured Percent Activity Remaining at Time (Hrs.) of `COC(=O)[C@H](N)Cc1c[nH]c2ccccc12` in your reply.
## Output 32

## Input Supply measured Percent Activity Remaining at Time (Hrs.) of `N[C@H](Cc1ccccc1)C(=O)O` in your reply.
## Output 57

The reported measurements were obtained from patent EP0306167A2.
